Test system: UISO
Measurement Description: qHTS assay to identify novel small-molecules to repurpose for Merkel cell carcinoma treatment (AID 1296009); also: nearly all actives have a fitted effect of over 60% in size
Reported Conditions: MCC and control cell lines, CellTiter-Glo viability, 72 h; series mostly up to 46 µM
Records with an inconclusive call do not appear. The source made the active and inactive calls. Calls follow the shape of the dose curve; as a rule, active = well fitted inhibition curve with a large enough effect; inconclusive = small, poorly fitted or top-dose-only effect; inactive = flat fitted curve, though single readings scatter.
Labels: active, inactive

>>> group("CO[C@H]1C(=O)[C@]2(C)[C@@H](OC)C[C@H]3OC[C@@]3(OC(C)=O)[C@H]2[C@H](OC(=O)c2ccccc2)[C@]2(O)C[C@H](OC(=O)[C@H](O)[C@@H](NC(=O)OC(C)(C)C)c3ccccc3)C(C)=C1C2(C)C")
"inactive"
>>> group("CCCCCN(C)CCC(O)(P(=O)(O)O)P(=O)(O)O")
"inactive"
>>> group("CCn1c(C(=O)N(C2CC2)C2CC2)cc2c3c(ncn3C)c(Nc3cc(C)n(C)n3)nc21")
"inactive"
>>> group("NCCS")
"inactive"
>>> group("CC#CCn1c(N2CCC[C@@H](N)C2)nc2c1c(=O)n(Cc1nc(C)c3ccccc3n1)c(=O)n2C")
"inactive"
>>> group("O=C1NC(=O)C(c2ccccc2)(c2ccccc2)N1")
"inactive"
>>> group("N[C@@]1(C(=O)O)CS(=O)(=O)[C@H]2[C@H](C(=O)O)[C@H]21")
"inactive"
>>> group("COc1cccc(-c2cc(=O)c3ccccc3o2)c1N")
"inactive"
>>> group("Cc1ccc(/C=N/NC(=O)c2ccccc2Oc2ccccc2)o1")
"inactive"
>>> group("NC1CCC(Nc2nc(Nc3ccc(C(=O)N4CCCCC4)cc3)c3ncn(-c4cccc(F)c4)c3n2)CC1 (centres undefined)")
"inactive"
>>> group("O=C(N[C@@H](c1ccccc1)[C@@H]1CCCCN1)c1cccc(C(F)(F)F)c1Cl")
"inactive"
>>> group("O=C(NCCN1CCOCC1)c1ccc(Cl)cc1")
"inactive"
>>> group("CC(=NNC(=S)N1CCC1)c1ccccn1")
"active"
>>> group("CCN(CC)CCOC(=O)c1ccc(N)cc1")
"inactive"
>>> group("COC(=O)N[C@H](C(=O)N1CCC[C@@H]1c1ncc(-c2ccc(-c3ccc(-c4cnc([C@@H]5CCCN5C(=O)[C@@H](NC(=O)OC)C(C)C)[nH]4)cc3)cc2)[nH]1)C(C)C")
"inactive"
>>> group("O=C(Nc1ccccc1Br)N[C@@H]1CCN(c2ccc(C(F)(F)F)cn2)C1")
"inactive"
>>> group("CC1(C)CCC(CN2CCN(c3ccc(C(=O)NS(=O)(=O)c4ccc(NCC5CCOCC5)c([N+](=O)[O-])c4)c(Oc4cnc5[nH]ccc5c4)c3)CC2)=C(c2ccc(Cl)cc2)C1")
"inactive"
>>> group("CC(C)C(C)C=CC(C)C1CCC2C3=CC=C4CC(O)CCC4(C)C3CCC21C (centres undefined)")
"inactive"
>>> group("CC(C)(C)COc1ccc(-n2cc(C(=O)O)cn2)cc1C#N")
"inactive"

###

Measurement Description: qHTS of pediatric cancer cell lines to identify multiple opportunities for drug repurposing: Primary screen for SK-N-MC cells (AID 1347093)
Reported Conditions: SK-N-MC viability, CellTiter-Glo luminescence, 48 h; series mostly up to 46 µM
Records with an inconclusive call do not appear. The source made the active and inactive calls. Calls come from the whole dose curve; as a rule, active = well fitted cell-killing curve with a large enough effect; inconclusive = small, poorly fitted or top-dose-only effect; inactive = no such curve, though single readings can be large or run the other way.
Labels: y (active), n (inactive)

>>> group("NC(N)=Nc1nc(CSCC/C(N)=N/S(N)(=O)=O)cs1")
"n"
>>> group("COc1cc(Nc2ncc(F)c(Nc3ccc4c(n3)NC(=O)C(C)(C)O4)n2)cc(OC)c1OC")
"y"
>>> group("C[C@H](NC(=O)c1sccc1OCc1ccc(Cl)cc1)c1ccccc1")
"y"
>>> group("CN(C)CCC(c1ccccc1)c1ccccn1 (stereo not given)")
"n"
>>> group("NC(=O)[C@@H](CCC(F)(F)F)N(Cc1ccc(-c2ncon2)cc1F)S(=O)(=O)c1ccc(Cl)cc1")
"y"
>>> group("C[C@H](NC(=O)C(=O)Nc1ccccc1C(C)(C)C)C(=O)N[C@@H](CC(=O)O)C(=O)COc1c(F)c(F)cc(F)c1F")
"y"
>>> group("Cc1cnc(C(=O)O)c[n+]1[O-]")
"n"
>>> group("Cc1c(NC(=O)c2ccc(C(C)(C)C)cc2)cccc1-c1cn(C)c(=O)c(Nc2ccc(C(=O)N3CCOCC3)cc2)n1")
"y"
>>> group("NS(=O)(=O)c1cccc2c1C(=O)c1cccc(O)c1C2=O")
"y"
>>> group("Cc1nnc(C(C)C)n1C1C[C@H]2CC[C@@H](C1)N2CC[C@H](NC(=O)C1CCC(F)(F)CC1)c1ccccc1 (stereo not given in full)")
"y"

###

Each record here notes measured viability (% of control).
Measurement Description: High-throughput drug toxicity screening in the BPDCN cell line Cal-1 (AID 1224825);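 also: cells exposed to compounds for 48 h; 100% = DMSO and 0% = bortezomib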
Reported Conditions: Cal-1 BPDCN cell viability, qHTS; at 45.8 µM (top of the series) unless noted
Recorded Metric: viability (% of control) (%)

>>> value_reported("O=C1C[C@@H](c2ccc(O)cc2)Oc2cc(O)cc(O)c21")
103
>>> value_reported("N#CC(=C(N)Sc1ccccc1N)C(C#N)=C(N)Sc1ccccc1N")
12.1
>>> value_reported("CC(C)OC(=O)C(C)(C)Oc1ccc(C(=O)c2ccc(Cl)cc2)cc1")
119
>>> value_reported("NC1=N[C@@]2(c3cc(NC(=O)c4ccc(F)cn4)ccc3F)COC[C@@H]2CS1")
12.9
>>> value_reported("N[C@H](CSC(c1ccccc1)(c1ccccc1)c1ccccc1)C(=O)O")
12
>>> value_reported("Cc1cnc(C(=O)O)c[n+]1[O-]")
105
>>> value_reported("C[C@@H]1CCN(C(=O)CC#N)C[C@H]1N(C)c1ncnc2[nH]ccc12")
110
>>> value_reported("CNC(=O)c1ccc2cc(C3(O)CCn4cncc43)ccc2c1 (centres undefined)")
94.8
>>> value_reported("CCOC1OC(=O)C[C@H]1NC(=O)[C@@H]1CCCN1C(=O)[C@@H](NC(=O)c1ccc(N)c(Cl)c1)C(C)(C)C (some centres undefined)")
16.7
>>> value_reported("OC[C@H]1O[C@@H](Oc2cc(O)cc(C=Cc3ccc(O)cc3)c2)[C@H](O)[C@@H](O)[C@H]1O")
60.5
>>> value_reported("O=C1c2ccccc2-[n+]2ccc3c([nH]c4ccccc43)c21")
3.57
>>> value_reported("NC(=O)c1cccc2[nH]c(-c3ccc([C@H]4CCCN4)cc3F)nc12")
19.9
>>> value_reported("O=c1cc(-c2ccccc2)oc2cc(O)c(O)c(O)c12")
91.7
>>> value_reported("N#C[C@H]1C[C@H]2C[C@@H]2N1C(=O)[C@@H](N)C12CC3CC(CC(O)(C3)C1)C2")
100

###

Measurement Description: qHTS of pediatric cancer cell lines to identify multiple opportunities for drug repurposing: Primary screen for BT-37 cells (AID 1347094)
Reported Conditions: BT-37 viability, CellTiter-Glo luminescence, 48 h; series mostly up to 57.3 µM
Results filed as inconclusive are left out. Activity calls are given as the source filed them. Calls come from the whole dose curve; as a rule, active = well fitted cell-killing curve with a large enough effect; inconclusive = small, poorly fitted or top-dose-only effect; inactive = flat fitted curve, though single readings scatter.
Labels: Yes for active, No for inactive

>>> group("CCN(CC)C(=O)c1ccc(O)c(OC)c1")
"No"
>>> group("C=C1C(=O)OC(CCCCCCCC)C1C(=O)O (centres undefined)")
"No"
>>> group("CC[C@]1(O)C[C@@H]2CN(CCc3c([nH]c4ccccc34)[C@@](C(=O)OC)(c3cc4c(cc3OC)N(C=O)[C@@H]3C45CCN4CC=C[C@](CC)([C@H]45)[C@@H](OC(C)=O)[C@]3(O)C(=O)OC)C2)C1 (some centres undefined)")
"No"
>>> group("OC[C@@H](O)[C@H](O)[C@H](O)[C@@H](O)CO")
"No"
>>> group("CC(=O)c1ccc(S(=O)(=O)NC(=O)NC2CCCCC2)cc1")
"No"
>>> group("CC(C)n1nc(-c2ccc3oc(N)nc3c2)c2c(N)ncnc21")
"Yes"
>>> group("O=C(O)c1ccccc1C(=O)Nc1ccc(-c2ccccc2)cc1")
"No"
>>> group("CN[C@@H](C)C(=O)N[C@H]1CN(C(=O)CC(C)C)CC[C@H]2CC[C@@H](C(=O)NC(c3ccccc3)c3ccccc3)N2C1=O")
"Yes"
>>> group("CN1[C@@H]2CCC[C@@H]1CC(NC(=O)c1nn(C)c3ccccc13)C2 (some centres undefined)")
"No"

###

Measurement Description: Primary qHTS for inhibitors of nuclear receptor binding SET domain protein 2 (NSD2) in an isogenic RCH-ACV NSD2 p.E1099K mutant (9B) (AID 1645876); also: nearly all actives have a fitted effect of over 70% in size
Reported Conditions: RCH-ACV (leukaemia line) NSD2 E1099K (9B) viability, CellTiter-Glo, 72 h; series mostly up to 44.9 µM
Inconclusive results are not listed. Calls of active or inactive are those of the source. Calls come from the whole dose curve; as a rule, active = well fitted inhibition curve with a large enough effect; inconclusive = small, poorly fitted or top-dose-only effect; inactive = flat fitted curve, though single readings scatter.
Labels: t for active, f for inactive

>>> group("CCCCCCCCCCCC1=C(O)C(=O)C=C(O)C1=O")
"f"
>>> group("O=C(CCN1CCN(C(=O)OCc2cc(Cl)cc(Cl)c2)CC1)c1ccc2[nH]c(=O)oc2c1")
"t"
>>> group("N[C@H](CSC(c1ccccc1)(c1ccccc1)c1ccccc1)C(=O)O")
"f"
>>> group("CC(=O)N(C)C1(c2ccccc2)CCN(CCC[C@]2(c3ccc(Cl)c(Cl)c3)CCCN(C(=O)c3ccccc3)C2)CC1")
"t"
>>> group("COc1cccc([C@@H](C)NCCCc2ccccc2Cl)c1")
"t"
